assay: Intravenous pharmacokinetics in CD-1 mouse; format: in vivo; conditions: plasma; iv bolus, male CD-1 mouse, dose 1.9-7.4 mg/kg per compound (Table 3); read-out: Plasma CL
Listing of entries alongside the reported clearance.
Kindly provide the numeric value in mL/min/kg only, without the unit symbol.

INSERT INTO assay_data (smiles_code, units, reported) VALUES
  ('C[C@@H](Oc1cc(-n2cnc3cc(-c4ccnc(N)c4)ccc32)sc1C(N)=O)c1ccccc1C(F)(F)F', 'mL/min/kg', 37.9),
  ('C[C@@H](Oc1cc(-n2cnc3cc(-c4ccc(N5CCNCC5)nc4)ccc32)sc1C(N)=O)c1ccccc1C(F)(F)F', 'mL/min/kg', 23.5),
  ('C[C@@H](Oc1cc(-n2cnc3cc(-c4cnn(C)c4)ccc32)sc1C(N)=O)c1ccccc1Cl', 'mL/min/kg', 12.1),
  ('C[C@@H](Oc1cc(-n2cnc3cc(-c4ccc(NC5CCN(C)CC5)nc4)ccc32)sc1C(N)=O)c1ccccc1Cl', 'mL/min/kg', 18.6),
  ('C[C@@H](Oc1cc(-n2cnc3cc(-c4ccc(N5CCNCC5)nc4)ccc32)sc1C(N)=O)c1ccccc1Cl', 'mL/min/kg', 33);

# input molecule: C[C@@H](Oc1cc(-n2cnc3cc(-c4cn[nH]c4)ccc32)sc1C(N)=O)c1ccccc1C(F)(F)F ; wanted: its clearance
23.1

Looking for the measured clearance of C[C@@H](Oc1cc(-n2cnc3cc(-c4ccnc(N5CCN(C)CC5)c4)ccc32)sc1C(N)=O)c1ccccc1C(F)(F)F , can you help?
32.3

GET /values?readout=clearance&item= C[C@@H](Oc1cc(-n2cnc3cc(-c4ccnc(NC5CCN(C)CC5)c4)ccc32)sc1C(N)=O)c1ccccc1C(F)(F)F
35.6

Query: clearance; subject: CCN1CCN(CCCn2cc(-c3ccc4c(c3)ncn4-c3cc(O[C@H](C)c4ccccc4Cl)c(C(N)=O)s3)cn2)CC1
43.6

###

Entries and their measured IC50 follow.
tested on: RKO; assay: Methylene Blue Cell Growth Inhibition Assay, RKO; format: cell-based; details: Homo sapiens, 72 h, read-out: MEB RKO IC50

Solved cases (5 shown):
INSERT INTO results (compound, reported) VALUES
  ('NC(=O)c1sc(-n2cnc3cc(C(=O)NCCN4CCNC4=O)ccc32)cc1OCc1ccccc1C(F)(F)F [PU4870 Ex 156, reference compound]', '> 1000 nM'),
  ('COc1cc2ncn(-c3cc(OC(C)c4ccccc4Cl)c(C(N)=O)s3)c2cc1OC (stereo not drawn) [PU4870 Ex 126, reference compound]', '< 100 nM'),
  ('C[C@@H](Oc1cc(-n2cnc3cc(-c4ccnc(N)c4)ccc32)sc1C(N)=O)c1ccccc1C(F)(F)F [Example 4]', '< 100 nM'),
  ('COc1cc2c(cc1OCCCN1CCCC1=O)ncn2-c1cc(OCc2ccccc2C(F)(F)F)c(C(N)=O)s1 [PU4870 Ex 134, reference compound]', '> 1000 nM'),
  ('C[C@@H](Oc1cc(-n2cnc3cc(-c4cnn(C)c4)ccc32)sc1C(N)=O)c1ccccc1Cl [Example 9]', '< 100 nM');

Returns the measured IC50 for the input compound. Input: C[C@@H](Oc1cc(-n2cnc3cc(-c4cn[nH]c4)ccc32)sc1C(N)=O)c1ccccc1C(F)(F)F [Example 5]
< 100 nM

Param item = C[C@@H](Oc1cc(-n2cnc3cc(-c4ccc(N5CCNCC5)nc4)ccc32)sc1C(N)=O)c1ccccc1C(F)(F)F [Example 1] ; retrieve measured IC50.
< 100 nM

Name the recorded IC50 for COc1cc2ncn(-c3cc(OC(C)c4ccccc4C(F)(F)F)c(C(N)=O)s3)c2cc1OC (stereo not drawn) [PU4870 Ex 127, reference compound] .
< 100 nM

What value of IC50 has been reported for the following compound? C[C@@H](Oc1cc(-n2cnc3cc(-c4ccc(N5CCNCC5)nc4)ccc32)sc1C(N)=O)c1ccccc1Cl [Example 7]
< 100 nM

###

target: PLK1 kinase domain (Homo sapiens); construct: made in house; host or cells: baculovirus infected T. ni cells; assay: Assay for Inhibition of PLK1 (33P SPA kinase assay); format: biochemical; settings: 2 nM PLK1 kinase domain, 1 μM ATP; read-out: PLK1 pIC50 (converted)
Sequence (P53350 21-346): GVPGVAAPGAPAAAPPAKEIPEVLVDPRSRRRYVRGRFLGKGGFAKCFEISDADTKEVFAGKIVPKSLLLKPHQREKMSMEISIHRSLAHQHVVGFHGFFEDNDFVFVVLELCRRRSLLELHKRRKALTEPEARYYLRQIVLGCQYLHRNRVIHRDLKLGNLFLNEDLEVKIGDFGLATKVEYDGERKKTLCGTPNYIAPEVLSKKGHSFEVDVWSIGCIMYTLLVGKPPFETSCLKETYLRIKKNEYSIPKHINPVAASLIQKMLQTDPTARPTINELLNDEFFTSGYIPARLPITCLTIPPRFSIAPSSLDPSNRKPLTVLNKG
Let's look at some compounds and their measured IC50.

// worked examples, IC50 included
INSERT INTO assay_data (compound, target_system, reported) VALUES
  ('COc1cc2c(cc1OCCCN1CCCC1=O)ncn2-c1cc(OCc2ccccc2C(F)(F)F)c(C(N)=O)s1 [PU4870 Ex 134, reference compound]', 'PLK1 kinase domain (Homo sapiens)', '10 to 1000 nM'),
  ('C[C@@H](Oc1cc(-n2cnc3cc(-c4ccc(N5CCNCC5)nc4)ccc32)sc1C(N)=O)c1ccccc1Cl', 'PLK1 kinase domain (Homo sapiens)', '< 10 nM'),
  ('C[C@@H](Oc1cc(-n2cnc3cc(-c4ccc(N5CCNCC5)nc4)ccc32)sc1C(N)=O)c1ccccc1C(F)(F)F', 'PLK1 kinase domain (Homo sapiens)', '< 10 nM'),
  ('C[C@@H](Oc1cc(-n2cnc3cc(-c4ccnc(NC5CCN(C)CC5)c4)ccc32)sc1C(N)=O)c1ccccc1C(F)(F)F', 'PLK1 kinase domain (Homo sapiens)', '< 10 nM'),
  ('COc1cc2ncn(-c3cc(OC(C)c4ccccc4C(F)(F)F)c(C(N)=O)s3)c2cc1OC (stereo not drawn) [PU4870 Ex 127, reference compound]', 'PLK1 kinase domain (Homo sapiens)', '< 10 nM');

Okay, now this compound:
What value of IC50 has been reported for the following compound? NC(=O)c1sc(-n2cnc3cc(C(=O)NCCN4CCNC4=O)ccc32)cc1OCc1ccccc1C(F)(F)F [PU4870 Ex 156, reference compound]
10 to 1000 nM

###

system: HCT-116; assay: Cell-Titer Glo Cell Growth Inhibition Assay, HCT116; format: cell-based; conditions: Homo sapiens, CellTiter-Glo, 72 h, read-out: CTG HCT116 IC50
The entries below are paired with their reported IC50.

Look over these answered cases.
INSERT INTO assay_data (compound, reported) VALUES
  ('C[C@@H](Oc1cc(-n2cnc3cc(-c4ccnc(N5CCN(C)CC5)c4)ccc32)sc1C(N)=O)c1ccccc1C(F)(F)F', '< 100 nM'),
  ('C[C@@H](Oc1cc(-n2cnc3cc(-c4ccc(N5CCNCC5)nc4)ccc32)sc1C(N)=O)c1ccccc1Cl', '< 100 nM'),
  ('C[C@@H](Oc1cc(-n2cnc3cc(-c4cn[nH]c4)ccc32)sc1C(N)=O)c1ccccc1C(F)(F)F', '< 100 nM');

Quick check: IC50 on HCT-116, item COc1cc2ncn(-c3cc(OC(C)c4ccccc4C(F)(F)F)c(C(N)=O)s3)c2cc1OC (stereo not shown) [PU4870 Ex 127, reference compound] ?
100 to 1000 nM

###

tested on: RPMI 8226; assay: Cell-Titer Glo Cell Growth Inhibition Assay, RPMI 8226; type: cell-based; details: Homo sapiens, CellTiter-Glo, 72 h, read-out: CTG RPMI 8226 IC50
quantity_kind: IC50

INSERT INTO results (smiles_code, reported) VALUES
  ('CCN1CCN(CCCn2cc(-c3ccc4c(c3)ncn4-c3cc(O[C@H](C)c4ccccc4Cl)c(C(N)=O)s3)cn2)CC1', '< 0.1 µM');

Turning now to a further record.
Form field: IC50 recorded for C[C@@H](Oc1cc(-n2cnc3cc(-c4cnn(C)c4)ccc32)sc1C(N)=O)c1ccccc1Cl with RPMI 8226 (enter value)
< 0.1 µM
